I'd be grateful if you could share measured target mRNA inhibition for these entries.
Target: DGAT2
Details: ASO, HepG2, 0.12 µM
After the bases stand the sugars from the 5' end (letter, count) and the backbone: PS all phosphorothioate, else s phosphorothioate and o phosphodiester by linkage. Methylation of C is not given here. e = 2'-O-(2-methoxyethyl) (MOE); d = 2'-deoxy (DNA)
One number for each entry, in %.

* TCACCTGCTTGTACACTTCA (sugars e5 d10 e5, PS) | 40
* TGGATGGGAAAGTAGTCTCG (sugars e5 d10 e5, PS) | 40

Would you kindly look at the next entry?
For the sequence TTTGGATAGTCGATTTACCA (sugars e5 d10 e5, PS) , report target mRNA inhibition.
41

----------
Molecular target: APOL1
Conditions: ASO, A431, 0.25 µM
After the bases stand the sugars from the 5' end (letter, count) and the backbone: PS all phosphorothioate, else s phosphorothioate and o phosphodiester by linkage. Methylation of C is not given here. k = constrained ethyl (cEt); d = 2'-deoxy (DNA)
measurement-label: target mRNA inhibition

Reference set, count: 2
• AGCATCAAAAACCTGG (sugars k4 d9 k3, PS) = 81%
• CAAGTCAGTACAGAGC (sugars k4 d9 k3, PS) = 82%

Would you kindly look at the next entry?
Recall the reported target mRNA inhibition of CAGTACAGAGCAGGAT (sugars k4 d9 k3, PS) on APOL1 and write it down.
82%

----------
Biological target: IRF5
Conditions: ASO, KARPAS-229, 4 µM
After the bases stand the sugars from the 5' end (letter, count) and the backbone: PS all phosphorothioate, else s phosphorothioate and o phosphodiester by linkage. Methylation of C is not given here. e = 2'-O-(2-methoxyethyl) (MOE); k = constrained ethyl (cEt); d = 2'-deoxy (DNA)
I'd be grateful if you could share measured target mRNA inhibition for these entries.
Give bare numbers, in %.

Reference set, count: 5
• TGAGTCTCAAACCAGG (sugars k2 d8 e4 k2, PS) = 0
• CTTGGTCTTGACCTCC (sugars kekdddddddddeekk, PS) = 36
• CAATTTTGCATTCCAT (sugars kdddddddddkekeke, PS) = 19
• GCATTCCATATACACA (sugars kkkddddddddkdkdk, PS) = 0
• GTTCTTGGACTCTCAA (sugars kkkddddddddkekek, PS) = 0

Return reported target mRNA inhibition values for all items listed beneath this line.
1. CATTCCATATACACAC (sugars kkddddddddkekekk, PS)
2. GTTCTTGGACTCTCAA (sugars k3 d9 k3 e1, PS)
3. GCTGTCACATCTCCAC (sugars kekdddddddddeekk, PS)
4. TCTGGCCCTTTTGGAA (sugars kdddddddddkekeke, PS)
5. CATTCCATATACACAC (sugars k3 d10 k3, PS)

[17, 37, 0, 0, 28]

Return reported target mRNA inhibition values for all items listed beneath this line.
1. ACGAGCAAAGGGTGAG (sugars k3 d10 k3, PS)
2. AGGTTCTTGGACTCTC (sugars kekdddddddddeekk, PS)
3. CTTCTGCAGGGAGTCA (sugars kkddddddddddkeke, PS)

[47, 0, 8]

Return reported target mRNA inhibition values for all items listed beneath this line.
1. GTCTGGCCCTTTTGGA (sugars kkkddddddddkekek, PS)
2. CCTTCTGCAGGGAGTC (sugars kddddddddddkekek, PS)
3. AGTCATGGGCGTGAGGC (sugars kkddddddddkekekkd, PS)
4. TTATTTCTGCTCCAGG (sugars k3 d9 k3 e1, PS)

1: 0; 2: 0; 3: 17; 4: 28

Return reported target mRNA inhibition values for all items listed beneath this line.
1. ACCATTCTATGCCTTT (sugars kkkddddddddkekek, PS)
2. TTGTCTAGTGTCATGG (sugars kkddddddddddkeke, PS)
3. CCCAATGCAACATCCA (sugars kkkdddddddddkeke, PS)
4. TCACCACTGTGTACCC (sugars kkddddddddddkeke, PS)
5. GAGTCATGGGCTGAGG (sugars k3 d9 k3 e1, PS)
6. ATAGGAGTGAGACGAG (sugars k3 d10 k3, PS)
7. ATCACCACTGTGTACC (sugars kkkddddddddkdkdk, PS)

1: 15; 2: 38; 3: 0; 4: 0; 5: 0; 6: 16; 7: 0

Return reported target mRNA inhibition values for all items listed beneath this line.
1. AAGGGCACAGACGCAGG (sugars kdddddddddkekeked, PS)
2. ATCACCACTGTGTACC (sugars kkkdddddddddkeke, PS)
3. GCTTGGTCTTGACCTC (sugars kkkddddddddkekek, PS)
4. CGGTCTTTGAGGTCTG (sugars kkdddddddddkekek, PS)
5. CTGTCACATCTCCACA (sugars kkkddddddddkekek, PS)

1: 0; 2: 0; 3: 0; 4: 44; 5: 0

----------
Biological target: HTRA1
Conditions: ASO, U251, 5 µM
After the bases stand the sugars from the 5' end (letter, count) and the backbone: PS all phosphorothioate, else s phosphorothioate and o phosphodiester by linkage. Methylation of C is not given here. l = locked nucleic acid (LNA); d = 2'-deoxy (DNA)
Label TRUE when target mRNA inhibition >= 70%; otherwise FALSE.

Could you please find out whether CTACGCATTGTATCGA (sugars l4 d8 l4, PS) has target mRNA inhibition that meets 70% or exceeds it?
TRUE

Could you please find out whether CTTCTATCTACGCATT (sugars l4 d8 l4, PS) has target mRNA inhibition that meets 70% or exceeds it?
TRUE

Could you please find out whether TTCTATCTACGCATTG (sugars l3 d10 l3, PS) has target mRNA inhibition that meets 70% or exceeds it?
TRUE

Could you please find out whether GCAATGTGTAAGAAGTA (sugars l3 d10 l4, PS) has target mRNA inhibition that meets 70% or exceeds it?
FALSE

Could you please find out whether TAAGAAGTACTTTAATAGC (sugars l4 d11 l4, PS) has target mRNA inhibition that meets 70% or exceeds it?
TRUE

Could you please find out whether TTCTATCTACGCATTGTA (sugars l3 d12 l3, PS) has target mRNA inhibition that meets 70% or exceeds it?
TRUE

----------
I'd be grateful if you could share measured target mRNA inhibition for these entries.
Molecular target: ANGPTL2
Conditions: ASO, 5 µM
After the bases stand the sugars from the 5' end (letter, count) and the backbone: PS all phosphorothioate, else s phosphorothioate and o phosphodiester by linkage. Methylation of C is not given here. l = locked nucleic acid (LNA); d = 2'-deoxy (DNA)
# output: number + unit

* ACAGAGACTAGGCATTT (sugars l3 d10 l4, PS) | 74.1%
* TTATAAACTCCTTGCTCTA (sugars l1 d14 l4, PS) | 33.2%
* CATTTTGAGATTCCCCC (sugars l1 d14 l2, PS) | 27.1%

Would you kindly look at the next entry?
For the sequence AAGTTGATAGTTTATCTCCT (sugars l2 d16 l2, PS) , report target mRNA inhibition.
60.9%

----------
I'd be grateful if you could share measured target mRNA inhibition for these entries.
Molecular target: DGAT2
Settings: ASO, HepG2, 0.12 µM
After the bases stand the sugars from the 5' end (letter, count) and the backbone: PS all phosphorothioate, else s phosphorothioate and o phosphodiester by linkage. Methylation of C is not given here. e = 2'-O-(2-methoxyethyl) (MOE); d = 2'-deoxy (DNA)
One number for each entry, in %.

- CTCAGAGACTCAGCCGCACC (sugars e3 d14 e3, PS): 70
- GCCAGGTAAGGCCGTATGCC (sugars e3 d14 e3, PS): 61

Return reported target mRNA inhibition values for all items listed beneath this line.
1. GATGCTGGATCCAGTGCCTA (sugars e5 d10 e5, PS)
2. CCAAGTAAGCCTCGGTGTCC (sugars e5 d10 e5, PS)
3. GGACCCACTGGAGCACTGAG (sugars e5 d10 e5, PS)
4. GGAGCTCAGAGACTCAGCCG (sugars e2 d13 e5, PS)
5. GCTTCACCAGGGCCTCCATG (sugars e5 d10 e5, PS)

1. 53
2. 32
3. 84
4. 65
5. 31

For the sequence TCTTGCCAGGCATGGAGCTC (sugars e5 d10 e5, PS) , report target mRNA inhibition.
47

----------
Target: MALAT1
Conditions: ASO, A431, 0.005 µM
After the bases stand the sugars from the 5' end (letter, count) and the backbone: PS all phosphorothioate, else s phosphorothioate and o phosphodiester by linkage. Methylation of C is not given here. k = constrained ethyl (cEt); d = 2'-deoxy (DNA)
just bin them by target mRNA inhibition: label 0: < 10%; label 1: ≥ 10% and < 30%; label 2: ≥ 30%

• AGAGAACCACACACTA (sugars k3 d10 k3, PS) = label 1
• TCCAGCATAAAGCTGA (sugars k3 d10 k3, PS) = label 0
• TAATGGTTTTCTACAC (sugars k3 d10 k3, PS) = label 2

Where would CCTTTTCTAACATAGT (sugars k3 d10 k3, PS) land among the classes by reported target mRNA inhibition?
label 1

Where would CGTATTTATAGACGGA (sugars k3 d10 k3, PS) land among the classes by reported target mRNA inhibition?
label 0

Where would CTGATAAACTCACTGC (sugars k3 d10 k3, PS) land among the classes by reported target mRNA inhibition?
label 2

Where would GTACTATCCCATCACT (sugars k3 d10 k3, PS) land among the classes by reported target mRNA inhibition?
label 2

Where would TATCTTAGTAACCTAT (sugars k3 d10 k3, PS) land among the classes by reported target mRNA inhibition?
label 1

Where would GAGTTGAGGCAAGTCC (sugars k3 d10 k3, PS) land among the classes by reported target mRNA inhibition?
label 2

Where would GCACTGGTACACCCAG (sugars k3 d10 k3, PS) land among the classes by reported target mRNA inhibition?
label 0

Where would CCCAATGGAGGTATGA (sugars k3 d10 k3, PS) land among the classes by reported target mRNA inhibition?
label 1

Where would GGCCTACTCAAGCTCT (sugars k3 d10 k3, PS) land among the classes by reported target mRNA inhibition?
label 1

Where would TACATGTTCCCACCCA (sugars k3 d10 k3, PS) land among the classes by reported target mRNA inhibition?
label 2

Where would TAAATTGGTTCTGGTC (sugars k3 d10 k3, PS) land among the classes by reported target mRNA inhibition?
label 2

Where would CAGACCTGAAGTCAAG (sugars k3 d10 k3, PS) land among the classes by reported target mRNA inhibition?
label 1

Where would CAGCTTATGGAACTTG (sugars k3 d10 k3, PS) land among the classes by reported target mRNA inhibition?
label 0

Where would ATGGAACTTGAATGCA (sugars k3 d10 k3, PS) land among the classes by reported target mRNA inhibition?
label 0

Where would GGCAAACGAAACATTG (sugars k3 d10 k3, PS) land among the classes by reported target mRNA inhibition?
label 2

Where would CTATATAAGGTCAATA (sugars k3 d10 k3, PS) land among the classes by reported target mRNA inhibition?
label 1

Hey, just so you know, these numbers are from the OligoGym collection.
